- TESTED TARGET: C-C chemokine receptor type 4 (Homo sapiens, UniProt P51679)
- Sequence (P51679 whole entry): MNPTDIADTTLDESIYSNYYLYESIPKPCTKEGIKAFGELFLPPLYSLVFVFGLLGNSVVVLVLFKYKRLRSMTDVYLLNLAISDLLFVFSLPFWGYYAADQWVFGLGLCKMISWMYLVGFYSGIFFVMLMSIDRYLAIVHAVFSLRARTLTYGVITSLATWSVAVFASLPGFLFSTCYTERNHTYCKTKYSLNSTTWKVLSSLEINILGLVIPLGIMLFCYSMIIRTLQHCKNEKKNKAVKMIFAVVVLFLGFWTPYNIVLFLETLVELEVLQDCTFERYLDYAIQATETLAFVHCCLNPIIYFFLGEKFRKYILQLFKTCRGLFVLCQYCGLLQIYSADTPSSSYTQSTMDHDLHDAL
Recorded IC50 by entry

Would you please look over these solved cases?
C=CCN(C(=O)OCc1ccccc1)C1CCN(CCC(C)(Cn2cnc3ccccc32)c2ccccc2)CC1 (stereo not drawn)	> 1000 nM
C=CCN(C(=O)OCc1ccccc1)C1CCN(CCC(Cn2c(CC)nc3ccccc32)c2ccccc2)CC1 (stereo not drawn)	> 1000 nM

Proceed to the following item.
GET /value?item= C=CCN(C(=O)OCc1ccc([N+](=O)[O-])cc1)C1CCN(CCC(Cn2cnc3ccccc32)c2ccccc2)CC1 (stereo not drawn) &field=IC50 returns > 1000 nM
